Target: T1, Human Tau 2N4R, wild type, recombinant full length (human, UniProt P10636 2-758)
T1 construct: Full length 2N4R isoform; monomer in SPR and ELISA; heparin-induced aggregates or seeds in the functional assays; also called Tau441; Tau-441
T1 sequence (P10636 other isoform, or with tags, fused parts or gaps limits assumed): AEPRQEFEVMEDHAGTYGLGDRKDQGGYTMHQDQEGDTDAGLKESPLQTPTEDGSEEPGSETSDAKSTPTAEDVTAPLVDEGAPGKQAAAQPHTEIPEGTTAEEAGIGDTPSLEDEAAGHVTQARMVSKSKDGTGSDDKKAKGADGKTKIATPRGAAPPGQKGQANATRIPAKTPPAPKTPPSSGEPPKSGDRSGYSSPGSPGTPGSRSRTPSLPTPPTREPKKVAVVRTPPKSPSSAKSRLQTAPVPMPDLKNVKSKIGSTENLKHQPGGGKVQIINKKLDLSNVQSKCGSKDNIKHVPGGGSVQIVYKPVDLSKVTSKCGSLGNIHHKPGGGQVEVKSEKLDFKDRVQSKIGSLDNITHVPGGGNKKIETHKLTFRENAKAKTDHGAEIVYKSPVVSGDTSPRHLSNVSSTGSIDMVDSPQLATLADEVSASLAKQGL
Experiment: SPR BIAcore, mAb captured by anti-human IgG, Tau flowed, 1:1 Langmuir
# key: entry, value: kon
Quick reminder: number only, in M⁻¹ s⁻¹, skip the unit.

Problem: I have this binder here, 7G6-HCzu15-LCzu12 (antibody, human IgG1, kappa, V domains shown, humanized, human IgG1 kappa) VH: EVQLLESGGGLVQPGGSLRLSCAASGYTFTTYWITWVRQAPGKGLEWVGDIYPGSSICNYNEKFKSRFTISVDNSKNTAYLQMNSLRAEDTAVYYCAREDGYDAWFAYWGQGTLVTVSS VL: DVQMTQSPSSLSASVGDRVTITCRSSQSILHSNGNTYLEWYQQKPGKAPKLLICKVSNRFSGVPSRFSGSGSGTDFTLTISSLQPEDFATYYCFQGSHVPFTFGQGTKLEIKR , and I need its recorded kon.
Solution: 2.02e+06

Problem: Return reported kon; argument: 7G6-HCzu19-LCzu12 (antibody, human IgG1, kappa, V domains shown, humanized, human IgG1 kappa) VH: EVQLLESGGGLVQPGGSLRLSCAASGYTFTTYWITWVRQAPGKGLEWVSDIYPGSSICNYADKFKGRFTISRDNSKNTLYLQMNSLRAEDTAVYYCAREDGYDAWFAYWGQGTLVTVSS VL: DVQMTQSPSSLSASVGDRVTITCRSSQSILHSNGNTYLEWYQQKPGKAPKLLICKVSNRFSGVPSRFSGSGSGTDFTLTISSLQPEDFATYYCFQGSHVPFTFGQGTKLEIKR
Solution: 1.25e+06

Let us examine a further case.
Problem: Suppose we examine the binder 7G6-HCzu16-LCzu12 (antibody, human IgG1, kappa, V domains shown, humanized, human IgG1 kappa) VH: EVQLLESGGGLVQPGGSLRLSCAASGYTFTTYWITWVRQAPGKGLEWVSDIYPGSSICNYNEKFKSRFTISVDNSKNTAYLQMNSLRAEDTAVYYCAREDGYDAWFAYWGQGTLVTVSS VL: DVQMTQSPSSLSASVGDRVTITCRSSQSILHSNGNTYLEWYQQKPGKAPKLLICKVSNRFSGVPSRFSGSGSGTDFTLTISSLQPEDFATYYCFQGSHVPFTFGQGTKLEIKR ; what kon value has been reported?
Solution: 1.53e+06

Origin of values: patent US20190112365A1
